Recorded pIC50 by entry
- Tested System: BTK enzyme (recombinant full-length BTK, hBTK) (Homo sapiens, UniProt Q06187)
- Construct: recombinant protein from baculovirus-transfected S 19 cells: full-length BTK, 6 HIS-tag cleaved; 6 HIS-tag (cleaved yes)
- Sequence (Q06187 whole entry): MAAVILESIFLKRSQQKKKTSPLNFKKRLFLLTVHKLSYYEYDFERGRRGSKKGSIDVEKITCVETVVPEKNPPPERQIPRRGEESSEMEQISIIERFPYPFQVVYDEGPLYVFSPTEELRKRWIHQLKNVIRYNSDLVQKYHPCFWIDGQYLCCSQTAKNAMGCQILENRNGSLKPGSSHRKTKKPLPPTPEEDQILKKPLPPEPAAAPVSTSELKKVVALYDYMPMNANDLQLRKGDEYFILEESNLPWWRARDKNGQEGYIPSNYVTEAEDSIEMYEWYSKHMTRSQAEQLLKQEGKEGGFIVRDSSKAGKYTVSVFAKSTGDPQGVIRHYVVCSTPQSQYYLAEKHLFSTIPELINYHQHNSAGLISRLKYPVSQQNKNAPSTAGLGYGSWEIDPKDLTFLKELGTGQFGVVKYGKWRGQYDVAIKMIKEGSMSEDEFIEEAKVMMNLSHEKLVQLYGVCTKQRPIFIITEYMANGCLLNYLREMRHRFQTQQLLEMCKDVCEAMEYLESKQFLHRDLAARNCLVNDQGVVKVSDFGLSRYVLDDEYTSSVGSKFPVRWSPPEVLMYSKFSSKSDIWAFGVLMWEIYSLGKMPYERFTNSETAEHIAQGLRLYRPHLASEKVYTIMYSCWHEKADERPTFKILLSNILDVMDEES
- Assay Summary: Btk enzyme activity assay (LANCE TR-FRET)
- Condition Label: 50 pM hBTK, 25 μM ATP, 60 minute compound and enzyme incubation, concentration range 1 μM to 0.017 nM, read-out: BTK binding IC50
Notebook: values listed as pIC50 are -log10 of the concentration (mol/L).

// fetch BTK enzyme (recombinant full-length BTK, hBTK) (Homo sapiens, UniProt Q06187) pIC50 for CCOc1cc(C(=O)Nc2cc(C(F)(F)F)ccn2)ccc1-c1nc([C@@H]2CC[C@H](C(F)(F)F)N(C(=O)C3CC3)C2)n2ccnc(N)c12 [Example 1] 6.46

// fetch BTK enzyme (recombinant full-length BTK, hBTK) (Homo sapiens, UniProt Q06187) pIC50 for CCOc1cc(C(=O)Nc2cc(C(F)(F)F)ccn2)ccc1-c1nc([C@H]2CN(C(=O)[C@H](C)OC)[C@@H](C)CO2)n2c(Cl)cnc(N)c12 [Example 21] 8.85

// fetch BTK enzyme (recombinant full-length BTK, hBTK) (Homo sapiens, UniProt Q06187) pIC50 for Nc1nccn2c([C@H]3CN(C(=O)C4CC4)[C@H](CO)CO3)nc(-c3ccc(C(=O)Nc4cc(C(F)(F)F)ccn4)cc3F)c12 [Example 63] 8.28

Further cases:
// fetch BTK enzyme (recombinant full-length BTK, hBTK) (Homo sapiens, UniProt Q06187) pIC50 for COc1cc(C(=O)Nc2cc(C(F)(F)F)ccn2)ccc1-c1nc([C@H]2CN(C(=O)[C@H](C)O)[C@@H](C)CO2)n2c(Cl)cnc(N)c12 [Example 38] 8.65
